measurement label: melting point

Please review the entries below; each comes with its answer.
[[record]]
substance_smiles = "CCC(C)(C)c1ccc(S(=O)(=O)N2CCN(c3nc(=O)c4cc(C(F)(F)F)cc([N+](=O)[O-])c4s3)CC2)cc1"
measurement_label = "melting point"
endpoint_value = "231 to 233 °C"

[[record]]
substance_smiles = "Cc1oncc1S(=O)(=O)N1CCN(c2nc(=O)c3cc(C(F)(F)F)cc([N+](=O)[O-])c3s2)CC1"
measurement_label = "melting point"
endpoint_value = "281 to 283 °C"

[[record]]
substance_smiles = "CCCCc1ccc(S(=O)(=O)N2CCN(c3nc(=O)c4cc(C(F)(F)F)cc([N+](=O)[O-])c4s3)CC2)cc1"
measurement_label = "melting point"
endpoint_value = "226 to 229 °C"


[ask] Look up melting point for this molecule: O=c1nc(N2CCN(S(=O)(=O)c3ccc(C(F)(F)F)cc3)CC2)sc2c([N+](=O)[O-])cc(C(F)(F)F)cc12
[reply] 222 to 225 °C

[ask] Given the entry O=c1nc(N2CCN(S(=O)(=O)c3ccc(Cl)s3)CC2)sc2c([N+](=O)[O-])cc(C(F)(F)F)cc12 , report its measured melting point.
[reply] 210 to 213 °C

[ask] melting point lookup needed for CS(=O)(=O)N1CCN(c2nc(=O)c3cc(C(F)(F)F)cc([N+](=O)[O-])c3s2)CC1 , thanks.
[reply] 186 to 188 °C

====

- assay comment: in vitro
- particulars: mouse microsomes
measurement label: Microsomal stability / clearance (in words), mouse

See these solved cases before continuing.
[[record]]
substance_smiles = "CS(=O)(=O)N1CCN(c2nc(=O)c3cc(C(F)(F)F)cc([N+](=O)[O-])c3s2)CC1"
endpoint_value = "lowest clearances"

[[record]]
substance_smiles = "O=c1nc(N2CCN(S(=O)(=O)C3CC3)CC2)sc2c([N+](=O)[O-])cc(C(F)(F)F)cc12"
endpoint_value = "lowest clearances"

[[record]]
substance_smiles = "CCS(=O)(=O)N1CCN(c2nc(=O)c3cc(C(F)(F)F)cc([N+](=O)[O-])c3s2)CC1"
endpoint_value = "lowest clearances"

[[record]]
substance_smiles = "O=c1nc(N2CCN(S(=O)(=O)c3cccs3)CC2)sc2c([N+](=O)[O-])cc(C(F)(F)F)cc12"
endpoint_value = "medium clearances"


[ask] Field request: Microsomal stability / clearance (in words), mouse | item: O=c1nc(N2CCN(S(=O)(=O)C3CCCCC3)CC2)sc2c([N+](=O)[O-])cc(C(F)(F)F)cc12
[reply] medium clearances
